Molecular target: MMP9 (Homo sapiens, UniProt P14780)
Sequence (P14780 107-707 limits assumed, species assumed): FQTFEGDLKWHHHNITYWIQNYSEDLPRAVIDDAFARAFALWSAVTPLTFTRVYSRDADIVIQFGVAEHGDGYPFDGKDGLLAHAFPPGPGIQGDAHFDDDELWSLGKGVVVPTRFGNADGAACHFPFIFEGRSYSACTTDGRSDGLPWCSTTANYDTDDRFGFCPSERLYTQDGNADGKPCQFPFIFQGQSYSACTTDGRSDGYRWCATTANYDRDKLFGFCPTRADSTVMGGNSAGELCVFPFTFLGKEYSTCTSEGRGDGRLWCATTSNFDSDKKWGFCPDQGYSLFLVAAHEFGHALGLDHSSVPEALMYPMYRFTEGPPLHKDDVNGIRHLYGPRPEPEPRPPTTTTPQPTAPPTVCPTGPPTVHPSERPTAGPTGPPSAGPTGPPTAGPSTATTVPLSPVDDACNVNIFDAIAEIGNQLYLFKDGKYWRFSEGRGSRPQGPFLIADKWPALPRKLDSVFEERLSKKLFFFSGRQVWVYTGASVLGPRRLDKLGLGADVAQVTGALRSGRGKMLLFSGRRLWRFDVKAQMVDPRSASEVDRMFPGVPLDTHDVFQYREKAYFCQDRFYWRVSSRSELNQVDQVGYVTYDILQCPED
Experiment: Enzymolysis assay of polypeptides by MMP9 (RP-HPLC)
Format: biochemical
Settings: polypeptide 100 µmol with activated MMP9, 37°C, 4 h, RP-HPLC peak areas
Square brackets hold non-standard residues; d marks the D form. Peptide text beside a SMILES is read from it. Cit = NC(=O)NCCC[C@H](N)C(=O)O
parameter-measured: Enzymolysis efficiency (%)

[[record]]
compound = "CC(=O)N[C@@H](CO)C(=O)N1CCC[C@H]1C(=O)N[C@@H](CCCNC(N)=O)C(=O)NCC(=O)N[C@@H](CC(C)C)C(=O)N[C@H](C(=O)N[C@@H](CCCNC(N)=O)C(N)=O)C(C)C [Compound 2-P22] (Ac-SP[Cit]GLV[Cit]-NH2)"
parameter_measured = "Enzymolysis efficiency (%)"
unit_abbrev = "%"
observed = 73.74

[[record]]
compound = "CC(=O)N[C@@H](CO)C(=O)N1CCC[C@H]1C(=O)N[C@@H](CCCNC(=N)N)C(=O)NCC(=O)N[C@@H](CC(C)C)C(=O)N[C@H](C(=O)N[C@@H](CCCNC(N)=O)C(N)=O)C(C)C [Compound 2-P18] (Ac-SPRGLV[Cit]-NH2)"
parameter_measured = "Enzymolysis efficiency (%)"
unit_abbrev = "%"
observed = 93.84


(P) CC(=O)N1CCC[C@H]1C(=O)N[C@@H](CCCNC(=N)N)C(=O)N[C@@H](CC(N)=O)C(=O)N[C@@H](CC(C)C)C(=O)N[C@H](C(=O)N[C@@H](CCCNC(N)=O)C(N)=O)C(C)C [Compound 2-P3] (Ac-PRNLV[Cit]-NH2)
(Q) CC(=O)NCC(=O)N1CCC[C@H]1C(=O)N[C@@H](CO)C(=O)N[C@@H](C)C(=O)N[C@@H](CC(C)C)C(=O)N[C@H](C(=O)N[C@@H](CCCNC(N)=O)C(N)=O)C(C)C [Compound 1-P13] (Ac-GPSALV[Cit]-NH2)
Challenge: Field: lower Enzymolysis efficiency (%) | Options: P / Q # respond with the chosen item's label
Response given: Q
(Q: 45.08%, P: 97.39%)

---

Target: UniProt P08253
Sequence (P08253 110-660, species assumed): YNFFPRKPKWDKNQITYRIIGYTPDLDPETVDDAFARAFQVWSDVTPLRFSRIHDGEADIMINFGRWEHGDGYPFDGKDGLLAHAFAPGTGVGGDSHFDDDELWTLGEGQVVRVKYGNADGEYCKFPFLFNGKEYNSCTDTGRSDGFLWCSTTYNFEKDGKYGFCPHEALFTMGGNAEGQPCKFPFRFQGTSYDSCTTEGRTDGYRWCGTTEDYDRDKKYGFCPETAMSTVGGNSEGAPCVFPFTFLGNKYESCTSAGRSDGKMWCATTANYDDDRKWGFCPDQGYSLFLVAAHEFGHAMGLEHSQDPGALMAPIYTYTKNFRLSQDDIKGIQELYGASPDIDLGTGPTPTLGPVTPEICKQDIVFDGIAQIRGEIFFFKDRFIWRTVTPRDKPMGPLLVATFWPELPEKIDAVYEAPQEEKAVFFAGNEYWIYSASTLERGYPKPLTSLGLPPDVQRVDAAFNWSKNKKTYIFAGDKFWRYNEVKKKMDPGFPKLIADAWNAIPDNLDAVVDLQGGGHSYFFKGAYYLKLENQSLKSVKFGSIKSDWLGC
Assay: Enzymolysis assay of polypeptides by MMP2 (RP-HPLC)
Assay type: biochemical
Details: test polypeptide 100 µmol, activated MMP2, 37°C, 4 h
Square brackets hold non-standard residues; d marks the D form. Peptide text beside a SMILES is read from it. Cit = NC(=O)NCCC[C@H](N)C(=O)O
parameter-measured: Enzymolysis efficiency (%)

(1) CC(=O)NCC(=O)N1CCC[C@H]1C(=O)N[C@@H](CCCNC(=N)N)C(=O)N[C@@H](CO)C(=O)N[C@@H](CC(C)C)C(=O)N[C@H](C(=O)N[C@@H](CCCNC(N)=O)C(N)=O)C(C)C [Compound 2-P7] (Ac-GPRSLV[Cit]-NH2)
(2) CC(=O)N[C@@H](Cc1c[nH]cn1)C(=O)N[C@H](C(=O)N[C@@H](CC(C)C)C(=O)N[C@@H](CC(N)=O)C(=O)N[C@@H](CC(C)C)C(=O)N[C@H](C(=O)N[C@@H](CCCNC(N)=O)C(N)=O)C(C)C)C(C)C [Compound 1-P2] (Ac-HVLNLV[Cit]-NH2)
Challenge: Of the two listed items, 1 and 2 , which carries the larger Enzymolysis efficiency (%) figure? # respond with the chosen item's label
Response given: 1
(1: 62.64%, 2: 14.28%)

Ref: patent EP4796557A1
